Below, each of the compounds is paired with its reported IC50 value.
# Tested on: HCV replicon 1A
# assay_method_text: microbe, parasite or virus in culture
# Assay type: cell-based, Hepatitis C virus (HCV)
# condition_summary: HCV replicon 1A; Replicon Assay A

// below: answered compounds
COC(=O)N[C@H](C(=O)N1CCC[C@H]1c1nc(-c2cc(F)c3c(c2)OC(c2ccc(C4CC4)s2)n2c-3cc3cc(-c4c[nH]c([C@@H]5C[C@H]6C[C@H]6N5C(=O)[C@@H](NC(=O)OC)C(C)C)n4)ccc32)c[nH]1)C(C)C (single isomer, unassigned) [Compound 720] :: 1.9 pM
COC(=O)NC(C(=O)N1[C@@H]2C[C@@H]2C[C@H]1c1ncc(-c2ccc3c(c2)cc2n3C(c3ccc(CC4CC4)s3)Oc3cc(-c4cnc([C@@H]5CCCN5C(=O)[C@@H](NC(=O)OC)C(C)C)[nH]4)cc(F)c3-2)[nH]1)C1CCOC(C)(C)C1 (single isomer, unassigned) [Compound 417] :: 3.4 pM

Query :: What value of IC50 has been recorded for this entry: COC(=O)NC(C(=O)N1CCC[C@H]1c1ncc(-c2ccc3c(c2)cc2n3C(c3ccc(CC4CC4)s3)Oc3cc(-c4cnc([C@@H]5CCCN5C(=O)[C@@H](NC(=O)OC)C(C)C)[nH]4)cc(F)c3-2)[nH]1)C1CCOC(C)(C)C1 (single isomer, unassigned) [Compound 409]
Result :: 1.7 pM

Query :: Then what about the compound COC(=O)N[C@H](C(=O)N1CCC[C@H]1c1ncc(-c2ccc3c(c2)OC(c2cc4ccccc4s2)n2c-3cc3cc(-c4cnc([C@@H]5C[C@@H](F)CN5C(=O)[C@@H](NC(=O)OC)C5CCOCC5)[nH]4)ccc32)[nH]1)C1CCOCC1 (single isomer, unassigned) ?
Result :: 43 pM

Query :: Then what about the compound COC(=O)N[C@H](C(=O)N1CCC[C@H]1c1cnc(-c2ccc3c(c2)cc2n3C(c3cc4ccccc4s3)Oc3cc(-c4cnc([C@@H]5CCCN5C(=O)[C@@H](NC(=O)OC)C5CCOCC5)[nH]4)ccc3-2)[nH]1)C1CCOCC1 (single isomer, unassigned) [Compound 809] ?
Result :: 16 pM

Query :: Then what about the compound COC(=O)NC(C(=O)N1[C@@H]2C[C@@H]2C[C@H]1c1ncc(-c2ccc3c(c2)cc2n3C(c3cc4ccccc4s3)Oc3cc(-c4cnc([C@@H]5CCCN5C(=O)[C@@H](NC(=O)OC)C(C)C)[nH]4)cc(F)c3-2)[nH]1)C1C[C@@H](C)O[C@@H](C)C1 (single isomer, unassigned) ?
Result :: 3.6 pM

Query :: Then what about the compound COC(=O)N[C@H](C(=O)N1CCC[C@H]1c1ncc(-c2cc(F)c3c(c2)OC(c2cc4ccccc4s2)n2c-3cc3cc(-c4cnc([C@@H]5C[C@H]6C[C@H]6N5C(=O)[C@@H](NC(=O)OC)C(C)C)[nH]4)ccc32)[nH]1)C(C)C (single isomer, unassigned) [Compound 615] ?
Result :: 2.3 pM

Query :: Then what about the compound COC(=O)N[C@H](C(=O)N1CCC[C@H]1c1ncc(-c2ccc3c(c2)OC(c2cc(C)c(C)s2)n2c-3cc3cc(-c4cnc([C@@H]5C[C@H]6C[C@H]6N5C(=O)[C@@H](NC(=O)OC)C(C)C)[nH]4)ccc32)[nH]1)C(C)C (single isomer, unassigned) [Compound 502] ?
Result :: 12.1 pM

Query :: Then what about the compound COC(=O)N[C@H](C(=O)N1CCC[C@H]1c1ncc(-c2cc(C)c3c(c2)OC(c2cc4c(s2)CCC4)n2c-3cc3cc(-c4cnc([C@@H]5CCCN5C(=O)[C@@H](NC(=O)OC)C5C[C@@H](C)O[C@@H](C)C5)[nH]4)ccc32)[nH]1)C(C)C (single isomer, unassigned) [Compound 550] ?
Result :: 30 pM

Query :: Then what about the compound COC(=O)N[C@H](C(=O)N1CCC[C@H]1c1ncc(-c2cc(F)c3c(c2)OC(c2scc4c2OCCO4)n2c-3cc3cc(-c4cnc([C@@H]5CCCN5C(=O)[C@@H](NC(=O)OC)C(C)C)[nH]4)ccc32)[nH]1)C(C)C (single isomer, unassigned) [Compound 524] ?
Result :: 7.66 pM

Cited source: patent US20160257697A1
